All values here come from paper PMC12446476.

System: N. gonorrhoeae
ASSAY_EXPLANATION: MIC determination, agar dilution (CLSI)
Format: cell-based, Neisseria gonorrhoeae
MEASUREMENT_SETUP: Neisseria gonorrhoeae, screening panel N. gonorrhoeae isolate J; read-out: Minimum inhibitory concentration

MOLECULE | UNITS_TEXT | MIC
Cc1c(CN(C)C(=O)/C=C/c2cnc3c(c2)N[C@H](C)CC(=O)N3)oc2ccccc12 | µg/mL | 0.125
Cc1c(CN(C)C(=O)/C=C/c2cnc3c(c2)CCC(=O)N3)oc2ccccc12 [Debio 1452, reference compound] | µg/mL | 2
Cc1c(CN(C)C(=O)/C=C/c2cnc3c(c2)NCCC(=O)N3)oc2ccccc12 | µg/mL | 0.25
Cc1c(CN(C)C(=O)/C=C/c2cnc3c(c2)N[C@H](C)[C@H](O)C(=O)N3)oc2ccccc12 | µg/mL | 0.06

----------
System: N. gonorrhoeae
ASSAY_EXPLANATION: MIC determination, agar dilution (CLSI)
Format: cell-based, Neisseria gonorrhoeae
MEASUREMENT_SETUP: Neisseria gonorrhoeae, screening panel N. gonorrhoeae isolate K; read-out: Minimum inhibitory concentration

COMPOUND | UNITS_TEXT | MIC
Cc1c(CN(C)C(=O)/C=C/c2cnc3c(c2)NCCC(=O)N3)oc2ccccc12 | µg/mL | 0.5
Cc1c(CN(C)C(=O)/C=C/c2cnc3c(c2)CCC(=O)N3)oc2ccccc12 [Debio 1452, reference compound] | µg/mL | 4
Cc1c(CN(C)C(=O)/C=C/c2cnc3c(c2)N[C@H](C)CC(=O)N3)oc2ccccc12 | µg/mL | 0.5
Cc1c(CN(C)C(=O)/C=C/c2cnc3c(c2)N[C@H](C)[C@H](O)C(=O)N3)oc2ccccc12 | µg/mL | 0.125

----------
Measured Minimum inhibitory concentration by item
Test system: N. gonorrhoeae
ASSAY_EXPLANATION: MIC determination, agar dilution (CLSI)
Assay type: cell-based, Neisseria gonorrhoeae
MEASUREMENT_SETUP: screening panel N. gonorrhoeae isolate D
MEASURE_NAME: Minimum inhibitory concentration (µg/mL)

COMPOUND | MEASURE_NAME | ASSAY_VALUE
Cc1oc2ccccc2c1CN(C)C(=O)/C=C/c1cnc2c(c1)NCCC(=O)N2 | Minimum inhibitory concentration | 1
O=C1CCNc2cc(/C=C/C(=O)N3CCC=C(c4ccccc4)CC3)cnc2N1 | Minimum inhibitory concentration | 2
O=C1CCNc2cc(C=CC(=O)N3CC4C=C(c5ccccc5)CC4C3)cnc2N1 (centres unmarked) | Minimum inhibitory concentration | 2
Cc1c(CN(C)C(=O)/C=C/c2cnc3c(c2)N[C@@H](C)CC(=O)N3)oc2ccccc12 | Minimum inhibitory concentration | 0.5
Cc1c(CN(C)C(=O)/C=C/c2cnc3c(c2)N[C@@H](C)[C@@H](O)C(=O)N3)oc2ccccc12 | Minimum inhibitory concentration | 1

----------
Test system: N. gonorrhoeae
ASSAY_EXPLANATION: MIC determination, agar dilution (CLSI)
Format: cell-based, Neisseria gonorrhoeae
MEASUREMENT_SETUP: Neisseria gonorrhoeae, screening panel N. gonorrhoeae isolate G; read-out: Minimum inhibitory concentration
MEASURE_NAME: MIC (µg/mL)

MOLECULE | UNITS_TEXT | ASSAY_VALUE
Cc1c(CN(C)C(=O)/C=C/c2cnc3c(c2)N[C@H](C)[C@H](O)C(=O)N3)oc2ccccc12 [Debio 1453] | µg/mL | 0.125
Cc1c(CN(C)C(=O)/C=C/c2cnc3c(c2)NCCC(=O)N3)oc2ccccc12 [Compound 1] | µg/mL | 0.5
Cc1c(CN(C)C(=O)/C=C/c2cnc3c(c2)N[C@H](C)CC(=O)N3)oc2ccccc12 [Compound 2] | µg/mL | 0.25
Cc1c(CN(C)C(=O)/C=C/c2cnc3c(c2)CCC(=O)N3)oc2ccccc12 [Debio 1452, reference compound] | µg/mL | 4
